These measurements were taken from the NIST ThermoML archive (doi:10.1021/je050316s).

Conditions: 298.15 K; 101.33 kPa; Liquid
PROPERTY MEASURED: mass density (kg/m3)
Write the value in kg/m3 as a bare number.

Query :: Note mass density for the compound shown: `CCCCCCC`
Result :: 679.43

Query :: Output mass density of `CCCCCCCCCC`
Result :: 726.55

Query :: Recall and state the measured mass density for `CCCCCCCC` .
Result :: 698.49

Query :: Write down mass density measured for item `CCc1ccccc1`
Result :: 862.59

====

Details: 303.15 K; 101.33 kPa; Liquid
± gives the expanded uncertainty stated by the source.
PROPERTY MEASURED: mass density

Query :: Let me know recorded mass density for CCCCCCCCCC [decane] , thanks.
Result :: 722.54 ± 0.38 kg/m3

Query :: Report mass density for NC1CCCCC1 [cyclohexylamine]
Result :: 858.2 ± 0.18 kg/m3

Query :: Complete the entry with mass density for CCCCCCC [heptane]
Result :: 675.32 ± 0.44 kg/m3

Query :: // fetch mass density given entry CCCCCCCCC [nonane]
Result :: 710.05 ± 0.38 kg/m3

Query :: Fill in reported mass density for this entry: CCCCCCCCCCC [undecane]
Result :: 732.93 ± 0.36 kg/m3

Query :: Note mass density for the compound shown: CCCCCCCC [octane]
Result :: 694.67 ± 0.39 kg/m3

Query :: Find the measured mass density of Nc1ccccc1 [aniline] and report it.
Result :: 1012.94 ± 0.27 kg/m3
